Provide the recorded Ki for the entries that follow.
Target: HIV-1 protease Mutant 9 (Human immunodeficiency virus type 1, UniProt P04585)
Assay: Ki against HIV-1 protease Mutant 9
Format: biochemical
Details: Mutant 9
Hi! Could you send only the number? It should be in nM, unit omitted.

Exercise: Fill in the recorded Ki for this molecule, with HIV-1 protease Mutant 9 (Human immunodeficiency virus type 1, UniProt P04585) as test system: CC(C)CN(C[C@@H](O)[C@H](Cc1ccccc1)NC(=O)OC1COC2OCCC12)S(=O)(=O)c1ccc2occ(CNC(=O)CSCc3ccccc3)c2c1 (some centres unmarked)
Key: 0.95

Exercise: Hello, I am looking for reported Ki with HIV-1 protease Mutant 9 (Human immunodeficiency virus type 1, UniProt P04585) for CCCCNc1n[nH]c2ccc(S(=O)(=O)N(CC(C)C)CC(O)C(Cc3ccccc3)NC(=O)OC3COC4OCCC34)cc12 (centres unmarked) . Could you help?
Key: 1.8

Exercise: Notebook entry, HIV-1 protease Mutant 9 (Human immunodeficiency virus type 1, UniProt P04585) assay: Ki of CC(C)CN(C[C@@H](O)[C@H](Cc1ccccc1)NC(=O)OC1CO[C@H]2OCC[C@@H]12)S(=O)(=O)c1ccc2c(c1)CCO2 (some centres unmarked) = ?
Key: 1.5

Exercise: What value of Ki on HIV-1 protease Mutant 9 (Human immunodeficiency virus type 1, UniProt P04585) does CC(C)CN(C[C@@H](O)[C@H](Cc1ccccc1)NC(=O)OC1COC2OCCC12)S(=O)(=O)c1ccc2occ(CN3CCOCC3)c2c1 (some centres unmarked) have?
Key: 1.5

Exercise: Provide value of Ki for this record tested with HIV-1 protease Mutant 9 (Human immunodeficiency virus type 1, UniProt P04585): CC(C)CN(CC(O)C(Cc1ccccc1)NC(=O)OC1COC2OCCC12)S(=O)(=O)c1ccc2[nH]nc(NCc3ccccc3)c2c1 (centres unmarked)
Key: 1.1

Exercise: Param readout= Ki; system= HIV-1 protease Mutant 9 (Human immunodeficiency virus type 1, UniProt P04585); entry= CCOC(=O)N(CCOC)Cc1coc2ccc(S(=O)(=O)N(CC(C)C)C[C@@H](O)[C@H](Cc3ccccc3)NC(=O)OC3COC4OCCC34)cc12 (some centres unmarked) ; returns value.
Key: 0.92

Exercise: Form: Entry = Cc1cc2cc(S(=O)(=O)N(CC(C)C)CC(O)C(Cc3ccccc3)NC(=O)OC3COC4OCCC34)ccc2o1 (centres unmarked) | System = HIV-1 protease Mutant 9 (Human immunodeficiency virus type 1, UniProt P04585) | Ki = ____
Key: 0.96

Exercise: Hello, I am looking for reported Ki with HIV-1 protease Mutant 9 (Human immunodeficiency virus type 1, UniProt P04585) for CCOC(=O)CNc1n[nH]c2ccc(S(=O)(=O)N(CC(C)C)CC(O)C(Cc3ccccc3)NC(=O)OC3COC4OCCC34)cc12 (centres unmarked) . Could you help?
Key: 0.19

Exercise: API: value(readout= Ki, system= HIV-1 protease Mutant 9 (Human immunodeficiency virus type 1, UniProt P04585), query= CC(C)CN(C[C@@H](O)[C@H](Cc1ccccc1)NC(=O)OC1COC2OCCC12)S(=O)(=O)c1ccc2occ(CNC(=O)c3cccnc3)c2c1 (some centres unmarked) )
Key: 0.12

Exercise: Tell me reported Ki for CC(C)CN(C[C@@H](O)[C@H](Cc1ccccc1)NC(=O)OC1COC2OCCC12)S(=O)(=O)c1ccc2c(c1)C(=O)CCO2 (some centres unmarked) , tested with HIV-1 protease Mutant 9 (Human immunodeficiency virus type 1, UniProt P04585).
Key: 4.9

Exercise: # get_value(readout= Ki, system= HIV-1 protease Mutant 9 (Human immunodeficiency virus type 1, UniProt P04585)) for CC(C)CN(C[C@@H](O)[C@H](Cc1ccccc1)NC(=O)OC1COC2OCCC12)S(=O)(=O)c1ccc2occ(CN3CCCCC3)c2c1 (some centres unmarked)
Key: 2.8

Exercise: Request body: readout Ki, system HIV-1 protease Mutant 9 (Human immunodeficiency virus type 1, UniProt P04585), query CCCC(C)Nc1n[nH]c2ccc(S(=O)(=O)N(CC(C)C)CC(O)C(Cc3ccccc3)NC(=O)OC3COC4OCCC34)cc12 (centres unmarked) . Return the value.
Key: 0.73
